- System: LOX IMVI melanoma
- protocol: NCI-60 one-dose screen, 48 h (100 = growth as untreated, 0 = no growth, -100 = all killed)
- measurement conditions: 10 µM
Compounds without any hit were thinned out: in the full panel of roughly 83,000, 20% have a hit.

[
  {
    "compound": "COc1nc2ccccc2s1",
    "study system": "LOX IMVI melanoma",
    "growth [%]": 82.1
  },
  {
    "compound": "COC(=O)c1ccc([N+](=O)[O-])c(C)c1",
    "study system": "LOX IMVI melanoma",
    "growth [%]": 107
  },
  {
    "compound": "CC(C)(CC(=O)O)CC(=O)O",
    "study system": "LOX IMVI melanoma",
    "growth [%]": 104
  },
  {
    "compound": "CCCCCCCCCCCCCC/C=C\\C(CC(=O)O)C(=O)O (stereo not given)",
    "study system": "LOX IMVI melanoma",
    "growth [%]": 110
  },
  {
    "compound": "CC(O)C(F)(F)C(F)(F)C(F)(F)F (stereo not given)",
    "study system": "LOX IMVI melanoma",
    "growth [%]": 107
  },
  {
    "compound": "CCOC(=O)c1ccc(Nc2sc(C(=O)c3ccc(Br)cc3)c(N)c2C#N)cc1",
    "study system": "LOX IMVI melanoma",
    "growth [%]": 38.8
  },
  {
    "compound": "CCCCCC#CC(=O)O",
    "study system": "LOX IMVI melanoma",
    "growth [%]": 104
  },
  {
    "compound": "CCCCN(C=S)CCCC",
    "study system": "LOX IMVI melanoma",
    "growth [%]": 106
  },
  {
    "compound": "C#CC(O)c1ccccc1 (stereo not given)",
    "study system": "LOX IMVI melanoma",
    "growth [%]": 103
  },
  {
    "compound": "N#Cc1ccc2nc[nH]c2c1",
    "study system": "LOX IMVI melanoma",
    "growth [%]": 101
  },
  {
    "compound": "OCc1cccnc1",
    "study system": "LOX IMVI melanoma",
    "growth [%]": 104
  },
  {
    "compound": "C=CC1=NC(C)(C)CC(C)O1 (stereo not given)",
    "study system": "LOX IMVI melanoma",
    "growth [%]": 98.4
  },
  {
    "compound": "Oc1cc2ccccc2c(-c2c(O)c(O)cc3ccccc23)c1O",
    "study system": "LOX IMVI melanoma",
    "growth [%]": 14.5
  },
  {
    "compound": "COC1OC(C(O)C(O)CO)C(O)C(O)C1O (stereo not given)",
    "study system": "LOX IMVI melanoma",
    "growth [%]": 102
  },
  {
    "compound": "CC1CC(C)S(=O)(=O)C1 (stereo not given)",
    "study system": "LOX IMVI melanoma",
    "growth [%]": 103
  }
]
